Here the recorded MIC is given for each entry.
Test system: Staphylococcus pyogenes 1022

Q: Fill in: MIC of CCOC1C=CC(C)=CC(COC2OC(C)C(O)C(OC)C2OC)C(CC)OC(=O)CC(OC(C)=O)C(C)C(OC2OC(C)C(O)C(N(C)C)C2O)C(CC=O)CC1C (stereo not shown) [Compound 8, 9-dihydro-9-O-ethyl-3-O-acetyldesmycosin] is ___
A: > 100 µg/mL

Q: Can you check CCC1OC(=O)CC(OC(C)=O)C(C)C(OC2OC(C)CC(N(C)C)C2O)C(CC=O)CC(C)C(OC)C=CC(C)=CC1COC1OC(C)C(O)C(OC)C1OC (stereo not shown) next?
A: > 100 µg/mL

Q: Can you check CCC1OC(=O)CC(OC(C)=O)C(C)C(OC2OC(C)C(O)C(N(C)C)C2O)C(CC=O)CC(C)C(OC)C=CC(C)=CC1COC1OC(C)C(O)C(OC)C1OC (stereo not shown) next?
A: > 100 µg/mL

***
Q: Fill in: MIC of CCC1OC(=O)CC(O)C(C)C(OC2OC(C)C(O)C(N(C)C)C2O)C(CC=O)CC(C)C(OCC2CC2)C=CC(C)=CC1COC1OC(C)C(O)C(OC)C1OC (stereo not shown) is ___
A: > 100 µg/mL

----------
Record type: MIC measurement. Applies to: Staphylococcus pyogenes 1022
// units = µg/mL; emit number, no label

Guide cases for MIC, answers given:
Q: Param readout= MIC; system= Staphylococcus pyogenes 1022; entry= CCC(=O)OC1CC(=O)OC(CC)C(COC2OC(C)C(O)C(OC)C2OC)C=C(C)C=CC(OC)C(C)CC(CC=O)C(OC2OC(C)C(O)C(N(C)C)C2O)C1C (stereo not shown) [Compound 5] ; returns value.
A: 50

Q: Can you check CCC1OC(=O)CC(O)C(C)C(OC2OC(C)C(O)C(N(C)C)C2O)C(CC=O)CC(C)C(OCC2CCCCC2)C=CC(C)=CC1COC1OC(C)C(O)C(OC)C1OC (stereo not shown) [Compound 16, 9-dihydro-9-O-cyclohexylmethyldesmycosin] next?
A: 50

Q: Can you check CCCOC1C=CC(C)=CC(COC2OC(C)C(O)C(OC)C2OC)C(CC)OC(=O)CC(OC(=O)CC)C(C)C(OC2OC(C)C(O)C(N(C)C)C2O)C(CC=O)CC1C (stereo not shown) [Compound 11] next?
A: 100

Kindly consider the entry below.
Q: Param readout= MIC; system= Staphylococcus pyogenes 1022; entry= CCC1OC(=O)CC(O)C(C)C(OC2OC(C)C(O)C(N(C)C)C2O)C(CC=O)CC(C)C(OCC2CCC2)C=CC(C)=CC1COC1OC(C)C(O)C(OC)C1OC (stereo not shown) [Compound 15, 9-dihydro-9-O-cyclobutylmethyldesmycosin] ; returns value.
A: 50

----------
Record type: MIC measurement. Applies to: Staphylococcus pyogenes 1022

Q: Param readout= MIC; system= Staphylococcus pyogenes 1022; entry= CCC1OC(=O)CC(O)C(C)C(OC2OC(C)C(O)C(N(C)C)C2O)C(CC=O)CC(C)C(OCc2ccccc2)C=CC(C)=CC1COC1OC(C)C(O)C(OC)C1OC (stereo not drawn) [Compound 18, 9-dihydro-9-O-benzyldesmycosin] ; returns value.
A: 100 µg/mL

***
Q: Param readout= MIC; system= Staphylococcus pyogenes 1022; entry= CCCOC1C=CC(C)=CC(COC2OC(C)C(O)C(OC)C2OC)C(CC)OC(=O)CC(O)C(C)C(OC2OC(C)C(O)C(N(C)C)C2O)C(CC=O)CC1C (stereo not drawn) [Compound 3, 9-dihydro-9-O-propyldesmycosin] ; returns value.
A: > 100 µg/mL

Q: Can you check CCC1OC(=O)CC(O)C(C)C(OC2OC(C)C(O)C(N(C)C)C2O)C(CC=O)CC(C)C(=O)C=CC(C)=CC1COC1OC(C)C(O)C(OC)C1OC (stereo not drawn) next?
A: > 100 µg/mL

----------
Record type: MIC measurement. Applies to: Staphylococcus pyogenes N.Y.5
// units = µg/mL; emit number, no label

Q: Fill in: MIC of CCC1OC(=O)CC(OC(C)=O)C(C)C(OC2OC(C)CC(N(C)C)C2O)C(CC=O)CC(C)C(OC)C=CC(C)=CC1COC1OC(C)C(O)C(OC)C1OC (stereo not shown) [Compound 13] is ___
A: 0.1

Q: Can you check CCOC1C=CC(C)=CC(COC2OC(C)C(O)C(OC)C2OC)C(CC)OC(=O)CC(OC(=O)CC)C(C)C(OC2OC(C)C(O)C(N(C)C)C2O)C(CC=O)CC1C (stereo not shown) [Compound 10] next?
A: 0.1

----------
Record type: MIC measurement. Applies to: Staphylococcus epidermidis sp-al-1
// units = µg/mL; emit number, no label

Q: Fill in: MIC of CCC1OC(=O)CC(OC(C)=O)C(C)C(OC2OC(C)C(O)C(N(C)C)C2O)C(CC=O)CC(C)C(OC)C=CC(C)=CC1COC1OC(C)C(O)C(OC)C1OC (centres unmarked) is ___
A: 0.39

Q: Can you check CCCCOC1C=CC(C)=CC(COC2OC(C)C(O)C(OC)C2OC)C(CC)OC(=O)CC(O)C(C)C(OC2OC(C)C(O)C(N(C)C)C2O)C(CC=O)CC1C (centres unmarked) [Compound 4, 9-dihydro-9-O-butyldesmycosin] next?
A: 0.39

Q: Can you check CCOC1C=CC(C)=CC(COC2OC(C)C(O)C(OC)C2OC)C(CC)OC(=O)CC(OC(=O)CC)C(C)C(OC2OC(C)C(O)C(N(C)C)C2O)C(CC=O)CC1C (centres unmarked) next?
A: 0.78

Q: Can you check CCCOC1C=CC(C)=CC(COC2OC(C)C(O)C(OC)C2OC)C(CC)OC(=O)CC(OC(=O)CC)C(C)C(OC2OC(C)C(O)C(N(C)C)C2O)C(CC=O)CC1C (centres unmarked) next?
A: 0.39

Q: Can you check CCCOC1C=CC(C)=CC(COC2OC(C)C(O)C(OC)C2OC)C(CC)OC(=O)CC(O)C(C)C(OC2OC(C)C(O)C(N(C)C)C2O)C(CC=O)CC1C (centres unmarked) [Compound 3, 9-dihydro-9-O-propyldesmycosin] next?
A: 0.2

Q: Can you check CCC1OC(=O)CC(OC(C)=O)C(C)C(OC2OC(C)CC(N(C)C)C2O)C(CC=O)CC(C)C(OC)C=CC(C)=CC1COC1OC(C)C(O)C(OC)C1OC (centres unmarked) next?
A: 0.39

Q: Can you check CCC1OC(=O)CC(O)C(C)C(OC2OC(C)C(O)C(N(C)C)C2O)C(CC=O)CC(C)C(OCc2ccccc2)C=CC(C)=CC1COC1OC(C)C(O)C(OC)C1OC (centres unmarked) [Compound 18, 9-dihydro-9-O-benzyldesmycosin] next?
A: 0.39

Q: Can you check CCC1OC(=O)CC(O)C(C)C(OC2OC(C)C(O)C(N(C)C)C2O)C(CC=O)CC(C)C(OCC2CCCCC2)C=CC(C)=CC1COC1OC(C)C(O)C(OC)C1OC (centres unmarked) [Compound 16, 9-dihydro-9-O-cyclohexylmethyldesmycosin] next?
A: 1.56

***
Q: Fill in: MIC of CCC1OC(=O)CC(O)C(C)C(OC2OC(C)C(O)C(N(C)C)C2O)C(CC=O)CC(C)C(OCC2CC2)C=CC(C)=CC1COC1OC(C)C(O)C(OC)C1OC (centres unmarked) is ___
A: 0.2

Q: Can you check CCOC1C=CC(C)=CC(COC2OC(C)C(O)C(OC)C2OC)C(CC)OC(=O)CC(OC(C)=O)C(C)C(OC2OC(C)C(O)C(N(C)C)C2O)C(CC=O)CC1C (centres unmarked) [Compound 8, 9-dihydro-9-O-ethyl-3-O-acetyldesmycosin] next?
A: 0.39

----------
Test system: Staphylococcus pyogenes N.Y.5
property.measured: MIC (µg/mL)
// units = µg/mL; emit number, no label

Q: Param readout= MIC; system= Staphylococcus pyogenes N.Y.5; entry= CCC1OC(=O)CC(O)C(C)C(OC2OC(C)C(O)C(N(C)C)C2O)C(CC=O)CC(C)C(OCC2CC2)C=CC(C)=CC1COC1OC(C)C(O)C(OC)C1OC (centres unmarked) [Compound 14] ; returns value.
A: 0.1

Kindly consider the entry below.
Q: Param readout= MIC; system= Staphylococcus pyogenes N.Y.5; entry= CCC(=O)OC1CC(=O)OC(CC)C(COC2OC(C)C(O)C(OC)C2OC)C=C(C)C=CC(OC)C(C)CC(CC=O)C(OC2OC(C)C(O)C(N(C)C)C2O)C1C (centres unmarked) [Compound 5] ; returns value.
A: 0.05

----------
Record type: MIC measurement. Applies to: Staphylococcus epidermidis sp-al-1
// units = µg/mL; emit number, no label

Q: Fill in: MIC of CCC1OC(=O)CC(O)C(C)C(OC2OC(C)C(O)C(N(C)C)C2O)C(CC=O)CC(C)C(=O)C=CC(C)=CC1COC1OC(C)C(O)C(OC)C1OC (stereo not drawn) is ___
A: 0.2

Q: Can you check CCC1OC(=O)CC(O)C(C)C(OC2OC(C)C(O)C(N(C)C)C2O)C(CC=O)CC(C)C(OCC2CCC2)C=CC(C)=CC1COC1OC(C)C(O)C(OC)C1OC (stereo not drawn) [Compound 15, 9-dihydro-9-O-cyclobutylmethyldesmycosin] next?
A: 0.78

***
Q: Fill in: MIC of CCC1OC(=O)CC(O)C(C)C(OC2OC(C)C(O)C(N(C)C)C2O)C(CC=O)CC(C)C(OCC(C)C)C=CC(C)=CC1COC1OC(C)C(O)C(OC)C1OC (stereo not drawn) [Compound 17, 9-dihydro-9-O-isobutyldesmycosin] is ___
A: 0.39
